Provide the reported IC50 of each item.
- System Tested: AChE (Homo sapiens)
- Construct: purchased Sigma Aldrich, Taufkirchen, D
- Sequence (P22303 32-614): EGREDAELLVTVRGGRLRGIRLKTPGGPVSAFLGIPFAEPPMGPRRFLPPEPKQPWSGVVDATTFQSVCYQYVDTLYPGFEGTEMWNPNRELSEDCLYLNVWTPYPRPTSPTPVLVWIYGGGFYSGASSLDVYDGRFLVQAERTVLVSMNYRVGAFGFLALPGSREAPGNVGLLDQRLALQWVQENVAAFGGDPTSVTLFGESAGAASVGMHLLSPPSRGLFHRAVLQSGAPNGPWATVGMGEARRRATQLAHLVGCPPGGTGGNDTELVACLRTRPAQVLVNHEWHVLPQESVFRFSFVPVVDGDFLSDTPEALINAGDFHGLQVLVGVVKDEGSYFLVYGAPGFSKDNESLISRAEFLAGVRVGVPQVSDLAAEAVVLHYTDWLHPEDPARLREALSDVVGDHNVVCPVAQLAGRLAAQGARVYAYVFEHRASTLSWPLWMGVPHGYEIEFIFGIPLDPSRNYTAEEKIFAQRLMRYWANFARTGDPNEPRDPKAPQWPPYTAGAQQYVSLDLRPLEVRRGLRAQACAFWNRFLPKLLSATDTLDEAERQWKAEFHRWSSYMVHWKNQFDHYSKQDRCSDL
- Protocol Text: biochemical
Answer format: numeric, µM implied, no suffix.

In plain terms, CC1NC(CCCCCCCCCc2cc(O)ccc2OC2OC(CO)C(O)C(O)C2O)CCC1O (stereo not drawn) has a documented IC50 of 172

In plain terms, CC1N=C(CCCCCCCCCCc2cc(O)ccc2OC2OC(CO)C(O)C(O)C2O)CC1O (stereo not drawn) has a documented IC50 of 231
